Where these numbers come from: patent USRE32311E

Catalogue of MIC readings, one per entry.
Tested on: Staphylococcus epidermidis EP12
Test: agar-dilution MIC
Type: cell-based

compound	MIC
CCCCCCCCC(=O)N[C@@H](Cc1ccccc1)C(=O)N[C@@H](Cc1c[nH]c2ccccc12)C(=O)N[C@H](CC(N)=O)C(=O)N[C@@H](CC(=O)O)C(=O)N[C@@H]1C(=O)NCC(=O)N[C@@H](CCCN)C(=O)N[C@@H](CC(=O)O)C(=O)N[C@H](C)C(=O)N[C@@H](CC(=O)O)C(=O)NCC(=O)N[C@H](CO)C(=O)N[C@@H]([C@H](C)CC(=O)O)C(=O)N[C@@H](CC(=O)c2ccccc2N)C(=O)O[C@@H]1C	2 µg/mL
CCC(C)CCCCCCC(=O)N[C@@H](Cc1c[nH]c2ccccc12)C(=O)N[C@@H](CC(N)=O)C(=O)N[C@@H](CC(=O)O)C(=O)N[C@@H]1C(=O)NCC(=O)N[C@@H](CCCNC(=O)CCC(=O)O)C(=O)N[C@@H](CC(=O)O)C(=O)N[C@H](C)C(=O)N[C@@H](CC(=O)O)C(=O)NCC(=O)N[C@H](CO)C(=O)N[C@@H]([C@H](C)CC(=O)O)C(=O)N[C@@H](CC(=O)c2ccccc2N)C(=O)O[C@@H]1C (some centres unmarked)	4 µg/mL
CCCCCCCCCCCC(=O)N[C@@H](Cc1c[nH]c2ccccc12)C(=O)N[C@@H](Cc1c[nH]c2ccccc12)C(=O)N[C@H](CC(N)=O)C(=O)N[C@@H](CC(=O)O)C(=O)N[C@@H]1C(=O)NCC(=O)N[C@@H](CCCN)C(=O)N[C@@H](CC(=O)O)C(=O)N[C@H](C)C(=O)N[C@@H](CC(=O)O)C(=O)NCC(=O)N[C@H](CO)C(=O)N[C@@H]([C@H](C)CC(=O)O)C(=O)N[C@@H](CC(=O)c2ccccc2N)C(=O)O[C@@H]1C	4 µg/mL
CCCCCCCCCC(=O)N[C@@H](Cc1ccccc1)C(=O)N[C@@H](Cc1c[nH]c2ccccc12)C(=O)N[C@H](CC(N)=O)C(=O)N[C@@H](CC(=O)O)C(=O)N[C@@H]1C(=O)NCC(=O)N[C@@H](CCCN)C(=O)N[C@@H](CC(=O)O)C(=O)N[C@H](C)C(=O)N[C@@H](CC(=O)O)C(=O)NCC(=O)N[C@H](CO)C(=O)N[C@@H]([C@H](C)CC(=O)O)C(=O)N[C@@H](CC(=O)c2ccccc2N)C(=O)O[C@@H]1C	0.5 µg/mL
CCCCCCCCCCCC(=O)N[C@H](Cc1ccccc1)C(=O)N[C@@H](Cc1c[nH]c2ccccc12)C(=O)N[C@H](CC(N)=O)C(=O)N[C@@H](CC(=O)O)C(=O)N[C@@H]1C(=O)NCC(=O)N[C@@H](CCCN)C(=O)N[C@@H](CC(=O)O)C(=O)N[C@H](C)C(=O)N[C@@H](CC(=O)O)C(=O)NCC(=O)N[C@H](CO)C(=O)N[C@@H]([C@H](C)CC(=O)O)C(=O)N[C@@H](CC(=O)c2ccccc2N)C(=O)O[C@@H]1C	1 µg/mL

====

Catalogue of LD50 in Mice readings, one per entry.
Experiment: toxicity, LD50 in mice
Assay type: in vivo
Details: administered intravenously
observable: LD50 in Mice (mg/kg)

molecule	boundOperator	recordedNumber
CCC(C)CCCCCCC(=O)N[C@@H](Cc1c[nH]c2ccccc12)C(=O)N[C@@H](CC(N)=O)C(=O)N[C@@H](CC(=O)O)C(=O)N[C@@H]1C(=O)NCC(=O)N[C@@H](CCCNC(=O)CCC(=O)O)C(=O)N[C@@H](CC(=O)O)C(=O)N[C@H](C)C(=O)N[C@@H](CC(=O)O)C(=O)NCC(=O)N[C@H](CO)C(=O)N[C@@H]([C@H](C)CC(=O)O)C(=O)N[C@@H](CC(=O)c2ccccc2N)C(=O)O[C@@H]1C (stereo partly drawn) [Compound 15]	=	250
CCCCCCCCCCCC(=O)NCCCCC(=O)N[C@@H](Cc1c[nH]c2ccccc12)C(=O)N[C@H](CC(N)=O)C(=O)N[C@@H](CC(=O)O)C(=O)N[C@@H]1C(=O)NCC(=O)N[C@@H](CCCN)C(=O)N[C@@H](CC(=O)O)C(=O)N[C@H](C)C(=O)N[C@@H](CC(=O)O)C(=O)NCC(=O)N[C@H](CO)C(=O)N[C@@H]([C@H](C)CC(=O)O)C(=O)N[C@@H](CC(=O)c2ccccc2N)C(=O)O[C@@H]1C [Compound 2]	>	600
CCCCCCCCCCCC(=O)N[C@@H](Cc1c[nH]c2ccccc12)C(=O)N[C@@H](Cc1c[nH]c2ccccc12)C(=O)N[C@H](CC(N)=O)C(=O)N[C@@H](CC(=O)O)C(=O)N[C@@H]1C(=O)NCC(=O)N[C@@H](CCCN)C(=O)N[C@@H](CC(=O)O)C(=O)N[C@H](C)C(=O)N[C@@H](CC(=O)O)C(=O)NCC(=O)N[C@H](CO)C(=O)N[C@@H]([C@H](C)CC(=O)O)C(=O)N[C@@H](CC(=O)c2ccccc2N)C(=O)O[C@@H]1C [Compound 24]	=	450

====

Catalogue of LD50 in Mice readings, one per entry.
Experiment: toxicity, LD50 in mice
Type: in vivo
Settings: administered intravenously
observable: LD50 in Mice (mg/kg)

molecule	boundOperator	recordedNumber
CCCCCCCCCCCC(=O)Nc1ccc(C(=O)N[C@@H](Cc2c[nH]c3ccccc23)C(=O)N[C@H](CC(N)=O)C(=O)N[C@@H](CC(=O)O)C(=O)N[C@@H]2C(=O)NCC(=O)N[C@@H](CCCN)C(=O)N[C@@H](CC(=O)O)C(=O)N[C@H](C)C(=O)N[C@@H](CC(=O)O)C(=O)NCC(=O)N[C@H](CO)C(=O)N[C@@H]([C@H](C)CC(=O)O)C(=O)N[C@@H](CC(=O)c3ccccc3N)C(=O)O[C@@H]2C)cc1 [Compound 4]	>	300
CCCCCCCCCCCC(=O)N[C@H](Cc1ccccc1)C(=O)N[C@@H](Cc1c[nH]c2ccccc12)C(=O)N[C@H](CC(N)=O)C(=O)N[C@@H](CC(=O)O)C(=O)N[C@@H]1C(=O)NCC(=O)N[C@@H](CCCN)C(=O)N[C@@H](CC(=O)O)C(=O)N[C@H](C)C(=O)N[C@@H](CC(=O)O)C(=O)NCC(=O)N[C@H](CO)C(=O)N[C@@H]([C@H](C)CC(=O)O)C(=O)N[C@@H](CC(=O)c2ccccc2N)C(=O)O[C@@H]1C [Compound 1]	=	250
CCCCCC(=O)N[C@@H](Cc1c[nH]c2ccccc12)C(=O)NCCC[C@@H]1NC(=O)CNC(=O)[C@@H](NC(=O)[C@H](CC(=O)O)NC(=O)[C@@H](CC(N)=O)NC(=O)[C@H](Cc2c[nH]c3ccccc23)NC(=O)CCCCCCCCC(C)CC)[C@@H](C)OC(=O)[C@H](CC(=O)c2ccccc2N)NC(=O)[C@H]([C@H](C)CC(=O)O)NC(=O)[C@@H](CO)NC(=O)CNC(=O)[C@H](CC(=O)O)NC(=O)[C@@H](C)NC(=O)[C@H](CC(=O)O)NC1=O (stereo partly drawn) [Compound 29]	=	37.5
CCCCCCCCCCCCCCCC(=O)N[C@@H](Cc1c[nH]c2ccccc12)C(=O)N[C@@H](CC(N)=O)C(=O)N[C@@H](CC(=O)O)C(=O)N[C@@H]1C(=O)NCC(=O)N[C@@H](CCCN)C(=O)N[C@@H](CC(=O)O)C(=O)N[C@H](C)C(=O)N[C@@H](CC(=O)O)C(=O)NCC(=O)N[C@H](CO)C(=O)N[C@@H]([C@H](C)CC(=O)O)C(=O)N[C@@H](CC(=O)c2ccccc2N)C(=O)O[C@@H]1C [Compound 10]	=	450
CCCCCCCCCCCC(=O)Nc1cccc(C(=O)N[C@@H](Cc2c[nH]c3ccccc23)C(=O)N[C@H](CC(N)=O)C(=O)N[C@@H](CC(=O)O)C(=O)N[C@@H]2C(=O)NCC(=O)N[C@@H](CCCN)C(=O)N[C@@H](CC(=O)O)C(=O)N[C@H](C)C(=O)N[C@@H](CC(=O)O)C(=O)NCC(=O)N[C@H](CO)C(=O)N[C@@H]([C@H](C)CC(=O)O)C(=O)N[C@@H](CC(=O)c3ccccc3N)C(=O)O[C@@H]2C)c1 [Compound 5]	=	277
CCCCCCCCCCC(=O)N[C@@H](Cc1ccccc1)C(=O)N[C@@H](Cc1c[nH]c2ccccc12)C(=O)N[C@H](CC(N)=O)C(=O)N[C@@H](CC(=O)O)C(=O)N[C@@H]1C(=O)NCC(=O)N[C@@H](CCCN)C(=O)N[C@@H](CC(=O)O)C(=O)N[C@H](C)C(=O)N[C@@H](CC(=O)O)C(=O)NCC(=O)N[C@H](CO)C(=O)N[C@@H]([C@H](C)CC(=O)O)C(=O)N[C@@H](CC(=O)c2ccccc2N)C(=O)O[C@@H]1C [Compound 20]	=	400
CCCCCCCCCC(=O)N[C@@H](Cc1ccccc1)C(=O)N[C@@H](Cc1c[nH]c2ccccc12)C(=O)N[C@H](CC(N)=O)C(=O)N[C@@H](CC(=O)O)C(=O)N[C@@H]1C(=O)NCC(=O)N[C@@H](CCCN)C(=O)N[C@@H](CC(=O)O)C(=O)N[C@H](C)C(=O)N[C@@H](CC(=O)O)C(=O)NCC(=O)N[C@H](CO)C(=O)N[C@@H]([C@H](C)CC(=O)O)C(=O)N[C@@H](CC(=O)c2ccccc2N)C(=O)O[C@@H]1C [Compound 19]	=	600
CCCCCCCCC(=O)N[C@@H](Cc1ccccc1)C(=O)N[C@@H](Cc1c[nH]c2ccccc12)C(=O)N[C@H](CC(N)=O)C(=O)N[C@@H](CC(=O)O)C(=O)N[C@@H]1C(=O)NCC(=O)N[C@@H](CCCN)C(=O)N[C@@H](CC(=O)O)C(=O)N[C@H](C)C(=O)N[C@@H](CC(=O)O)C(=O)NCC(=O)N[C@H](CO)C(=O)N[C@@H]([C@H](C)CC(=O)O)C(=O)N[C@@H](CC(=O)c2ccccc2N)C(=O)O[C@@H]1C [Compound 18]	>	600
CCCCCCCCCCCC(=O)NCCCCCCCCCCC(=O)N[C@@H](Cc1c[nH]c2ccccc12)C(=O)N[C@H](CC(N)=O)C(=O)N[C@@H](CC(=O)O)C(=O)N[C@@H]1C(=O)NCC(=O)N[C@@H](CCCN)C(=O)N[C@@H](CC(=O)O)C(=O)N[C@H](C)C(=O)N[C@@H](CC(=O)O)C(=O)NCC(=O)N[C@H](CO)C(=O)N[C@@H]([C@H](C)CC(=O)O)C(=O)N[C@@H](CC(=O)c2ccccc2N)C(=O)O[C@@H]1C [Compound 3]	=	600
